# experimental_target: Retinoic acid receptor RXR-alpha (Homo sapiens)
# assay_notes: qHTS assay for small molecule antagonists of retinoid X receptor alpha signaling (AID 588546);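 also: cells stimulated with 9-cis-retinoic acid as agonist; % is scaled to controls: 0 for no effect and ±100 for the full control effect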
# test_settings: HEK293T RXRa-UAS-bla, beta-lactamase ratio, antagonist mode
Inconclusive results are not listed. Calls of active or inactive are those of the source. Calls follow the shape of the dose curve; as a rule, active = well fitted inhibition curve with a large enough effect in the signal ratio, with a control signal flat (not every such curve was filed as active); inconclusive = small, poorly fitted or top-dose-only effect, or effect the other way, or a change in a side signal; inactive = no such curve, though single readings can be large or run the other way; the % refers to the signal ratio.
Assignment: determine reported max response for the given molecules.

Supply reported max response belonging to this molecule: CC(C)(C)c1n[nH]c(=O)n(N)c1=O -3.59% (inactive)

Note down max response recorded for CCCCCCOCCOCCO 2.18% (inactive)

Tell us which max response value is on record for Cc1ccc(N=Nc2c(O)ccc3ccccc23)c([N+](=O)[O-])c1 -0.783% (inactive)

Give the value of max response reported for the following: OC1CCCCCCCCCCC1 -4.46% (inactive)

# return recorded max response for input NCCCCCCCCCCCC(=O)O 2.61% (inactive)

Indicate its recorded max response; the molecule in question is CCCCCCCC(=O)Oc1c(Br)cc(C#N)cc1Br -20.9% (inactive)

Determine its reported max response: C=CC(=O)OCC[N+](C)(C)C 1.59% (inactive)

Quickly give me recorded max response for CC(C)CC(C)(O)C#CC(C)(O)CC(C)C (centres undefined) -21.9% (inactive)

Item CCSC(=O)N(CC(C)C)CC(C)C : provide max response -2.54% (inactive)

Give max response for C[Si]1(C)O[Si](C)(C)O[Si](C)(C)O[Si](C)(C)O1 6.05% (inactive)

Please report max response for the following molecule: c1ccc2cc3ccccc3cc2c1 -8.21% (inactive)

Please report max response for the following molecule: O=C(O)C1(C(=O)Nc2ccc(Cl)cc2Cl)CC1 9.68% (inactive)

Name the recorded max response of the item CCCOC(=O)c1ccc(C(=O)OCCC)nc1 in your answer. -17.9% (inactive)

Read off the recorded max response for O=C(O)CCCCCCCCCCC(=O)O 7.09% (inactive)

Look up max response of CCOC(=O)CCCCCCCCC(=O)OCC and report it. 0.487% (inactive)

Note down max response recorded for OCCOCCOCCOCCO -5.67% (inactive)

Report max response, nothing else, for this molecule: CCN(Cc1cccc(S(=O)(=O)O)c1)c1ccc(C(=C2C=CC(=[N+](CC)Cc3cccc(S(=O)(=O)[O-])c3)C=C2)c2ccccc2)cc1 8.46% (inactive)

Identify the reported max response for the following entry. CC(COCC(C)OC(=O)c1ccccc1)OC(=O)c1ccccc1 (centres undefined) -22% (inactive)

Give max response for CC1(C)C(=O)N(Cl)C(=O)N1Cl -12.2% (inactive)

Identify max response associated with the molecule C/C(=C\C(C)CC(C)CC(C)C)C1CC(=O)OC1=O (centres undefined) 4.94% (inactive)

Assign max response to the following record: O=C(O)CCCCCCC(=O)O 2.98% (inactive)

Quote max response reported for CC(=O)/C=C/C1C(C)=CCCC1(C)C (centres undefined) please. -10.8% (inactive)

Answer with reported max response of NN(c1ccccc1)c1ccccc1 -14.4% (inactive)

Note down max response recorded for CCCCCCCCCCCCN 5.24% (inactive)

Look up and state reported max response for O=C(OCC1CCC2OC2C1)C1CCC2OC2C1 (centres undefined) -6.03% (inactive)

Give reported max response value for CCCCCCCCCc1ccccc1 2.35% (inactive)

Identify measured max response associated with CC(=O)N(CCN(C(C)=O)C(C)=O)C(C)=O -5.17% (inactive)

Entry CCC(=O)OCCc1ccccc1 needs its max response filled in; supply it. 3.85% (inactive)

Fill in max response for record C=CCOc1nc(OCC=C)nc(OCC=C)n1 0.817% (inactive)

Entry source: PubChem BioAssay (NCATS)
